Value source: the supplement of paper PMC10567573

What protein stability index was measured for each of the following?
B1: EDARADD (parent)
chain: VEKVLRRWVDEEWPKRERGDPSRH

Variants of: B1
Test: protein stability index of a GFP-peptide fusion (GPS, HEK-293T) (PSI 1-6); higher = more stable;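 note: lentivirally expressed fusions sorted by FACS into six bins by GFP to DsRed ratio, PSI derived from sequencing read proportions per bin multiplied by bin number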
Conditions: c terminus: a fixed tail appended

Answer with reported protein stability index of G19S
2.8

Find the measured protein stability index of V1H and report it.
3.42

State, in one line, measured protein stability index of W13P
3.75

Please list protein stability index recorded for the variant K15W
1.71

Look up and report measured protein stability index for this entry: K15N
2.25

Specify reported protein stability index for the variant shown: R6T
3.84

Give the measured protein stability index for D20C
2.31

Give reported protein stability index value for R23F
1.98

Return protein stability index (reported value) for this variant: E12A
1.87
